Origin of measurements: patent US20090233841A1

# Tested on: male ICR mice
# measurement-description: Tolerance: tail flick ED50 after 3-day chronic ICV infusion (osmotic minipump)
# Type: in vivo, mouse
# setup-conditions: saline chronically administered ICV for 3 days, then challenge doses of compound
observable: Saline ED50 nmol (95% C.L.)

CN1CCC23c4c5ccc(O)c4OC2C(NC(=O)COCC(=O)NCCCCCCNC(=O)COCC(=O)Nc2cccc4c6c([nH]c24)C2Oc4c(O)ccc7c4C24CCN(CC2CC2)C(C7)C4(O)C6)CCC3(O)C1C5 (centres unmarked) : 0.17 (0.15-0.20) nmol
CNC(=O)COCC(=O)NCCCCCNC(=O)COCC(=O)NC1CCC2(O)C3Cc4ccc(O)c5c4C2(CCN3C)C1O5 (centres unmarked) [Compound 12, reference compound] : 0.04 (0.03-0.05) nmol
CN1CC[C@]23c4c5ccc(O)c4O[C@H]2[C@@H](O)C=C[C@H]3[C@H]1C5 [Morphine, reference compound] : 4.54 (3.51-5.56) nmol
CN1CCC23c4c5ccc(O)c4OC2C(NC(=O)COCC(=O)NCCCCNC(=O)COCC(=O)Nc2cccc4c6c([nH]c24)C2Oc4c(O)ccc7c4C24CCN(CC2CC2)C(C7)C4(O)C6)CCC3(O)C1C5 (centres unmarked) : 1.29 (0.97-1.61) nmol
CN1CCC23c4c5ccc(O)c4OC2C(NC(=O)COCC(=O)NCCCNC(=O)COCC(=O)Nc2cccc4c6c([nH]c24)C2Oc4c(O)ccc7c4C24CCN(CC2CC2)C(C7)C4(O)C6)CCC3(O)C1C5 (centres unmarked) : 1.54 (0.89-2.20) nmol
CN1CCC23c4c5ccc(O)c4OC2C(NC(=O)COCC(=O)NCCCCCNC(=O)COCC(=O)Nc2cccc4c6c([nH]c24)C2Oc4c(O)ccc7c4C24CCN(CC2CC2)C(C7)C4(O)C6)CCC3(O)C1C5 (centres unmarked) : 0.42 (0.37-0.47) nmol
CN1CCC23c4c5ccc(O)c4OC2C(NC(=O)COCC(=O)NCCCCCCCNC(=O)COCC(=O)Nc2cccc4c6c([nH]c24)C2Oc4c(O)ccc7c4C24CCN(CC2CC2)C(C7)C4(O)C6)CCC3(O)C1C5 (centres unmarked) : 0.10 (0.09-0.11) nmol

Consider the record given below.
Query string: What value of Saline ED50 nmol (95% C.L.) has been recorded for this entry: CN1CCC23c4c5ccc(O)c4OC2C(NC(=O)COCC(=O)NCCNC(=O)COCC(=O)Nc2cccc4c6c([nH]c24)C2Oc4c(O)ccc7c4C24CCN(CC2CC2)C(C7)C4(O)C6)CCC3(O)C1C5 (centres unmarked)
Result string: 1.62 (1.35-1.89) nmol
